Measured optical density values are reported for all entries that follow.
target: human Fc (human); experiment: ELISA, negative control
experimental.readout: optical density (OD)

366_B05 (antibody, V domains shown) VH: EVQLLESGGGLVQPGGSLRLSCAASGFTFSDYSMNWVRQAPGKGLEWVSGINYNSGYKSYADSVKGRFTISRDNSKNTLYLQMNSLRAEDTAVYYCARGANWHDTALDYWGQGTLVTVSS VL: DIQMTQSPSSLSASVGDRVTITCRASQSISSYLNWYQQKPGKAPKLVIYAVTSRASGVPSRFSGSGSGTDFTLTISSLQPEDFATYYCQQSYELPLTFGGGTKVEIK    0.24
370_B12 (antibody, V domains shown) VH: EVQLLESGGGLVQPGGSLRLSCAASGFTFSDYSMNWVRQAPGKGLEWVSGINYNGGYKGYADSVKGRFTISRDNSKNTLYLQMNSLRAEDTAVYYCARGANWHDTALDYWGQGTLVTVSS VL: DIQMTQSPSSLSASVGDRVTITCRASQSILSYVNWYQQKPGKAPKLVIYATTSRASGVPSRFSGSGSGTDFTLTISSLQPEDFATYYCQQSYETPLTFGGGTKVEIK    0.478
